Target: T1, alanine aminotransferase (Homo sapiens, UniProt P24298)
T1 chain: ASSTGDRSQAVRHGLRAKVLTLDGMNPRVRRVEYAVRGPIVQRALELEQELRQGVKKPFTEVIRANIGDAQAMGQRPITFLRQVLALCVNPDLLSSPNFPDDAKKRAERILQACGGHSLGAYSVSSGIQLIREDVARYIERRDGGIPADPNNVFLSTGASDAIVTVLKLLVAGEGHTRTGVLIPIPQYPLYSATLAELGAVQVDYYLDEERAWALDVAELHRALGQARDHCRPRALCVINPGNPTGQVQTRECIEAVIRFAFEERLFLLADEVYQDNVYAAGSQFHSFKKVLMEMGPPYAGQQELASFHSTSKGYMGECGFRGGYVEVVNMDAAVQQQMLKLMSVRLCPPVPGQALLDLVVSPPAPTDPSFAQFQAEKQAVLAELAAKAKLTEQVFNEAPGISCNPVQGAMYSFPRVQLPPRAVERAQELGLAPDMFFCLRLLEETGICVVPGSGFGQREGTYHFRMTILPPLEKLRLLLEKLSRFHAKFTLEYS
Assay: QCM
OBSERVED_PROPERTY: Kd

Lookup: // Kd lookup, key: WHWRNPDFWYLKC (immobilized on gold via C-terminal cysteine) [ALT5-8 peptide (C-terminal Cys)]
Found: 20.1 nM
